Test system: Bacillus subtilis
ASSAY REMARKS: Antibacterial activity against Bacillus subtilis 168 by dilution technique
Assay type: functional
EXPERIMENTAL SETUP: subsp. subtilis str. 168
PARAMETER MEASURED: MIC

Answered examples (2):
{"COMPOUND STRING": "CC(C)(O)[C@@H]1CC[C@@](C)([C@H]2CC[C@]3(C)[C@@H]2[C@H](OC(=O)/C=C/c2ccccc2)C[C@@H]2[C@@]4(C)CC[C@H](O)C(C)(C)[C@@H]4CC[C@]23C)O1", "MIC": "> 128 µg/mL"}
{"COMPOUND STRING": "CC(=O)O[C@@H]1C[C@@H]2[C@@]3(C)CC[C@H](O)C(C)(C)[C@@H]3CC[C@@]2(C)[C@]2(C)CC[C@H]([C@]3(C)CC[C@@H](C(C)(C)O)O3)[C@@H]12", "MIC": "> 128 µg/mL"}

Next item in the queue.
Please give the measured MIC for this compound: "CC(=O)O[C@@H]1C[C@@H]2[C@@]3(C)CC[C@H](O)C(C)(C)[C@@H]3CC[C@@]2(C)[C@]2(C)CC[C@H]([C@]3(C)CC[C@H](C(C)(C)O)O3)[C@@H]12"
> 128 µg/mL

FYI, the data here is from ChEMBL document CHEMBL2424524.
